Hello, the source for this data is patent US9808448B2, in case you need it.

- System: MEF (C57BL/6)
- experiment-description: Cell survival, MEF
- Assay type: cell-based
- applied-conditions: Mus musculus; read-out: IC50/μM MEF (C57BL/6)
Each item that follows carries a reported IC50.
readout-kind: IC50 (µM)

{"columns": ["compound", "readout-unit", "censoring-qualifier", "readout-number"],
 "data": [
  ["CCn1c(=O)/c(=C2\\Sc3cccc(F)c3N2C)s/c1=C\\c1scc[n+]1Cc1ccccc1 [drawing 56]", "µM", "=", 8.29],
  ["CCn1c(=O)/c(=C2\\Sc3c(Cl)cccc3N2C)s/c1=C\\c1scc[n+]1Cc1ccccc1", "µM", ">", 30],
  ["CCn1c(=O)/c(=C2\\Sc3cc(Cl)ccc3N2C)s/c1=C\\c1scc[n+]1Cc1ccccc1", "µM", "=", 23.9],
  ["CCn1c(=O)/c(=C2\\Sc3ccccc3N2C)s/c1=C\\c1cccc[n+]1Cc1ccccc1", "µM", "=", 14.6],
  ["CCn1c(=O)/c(=C2\\Sc3cccc(Cl)c3N2C)s/c1=C\\c1scc[n+]1Cc1ccccc1 [drawing 57]", "µM", "=", 6.96],
  ["CCn1c(=O)/c(=C2\\Sc3cccc(Cl)c3N2C)s/c1=C\\c1cccc[n+]1Cc1ccccc1", "µM", "=", 6.46]
]}

###

- experiment-description: Pharmacokinetics of YM-08 in plasma and brain, CD1 mice
- Assay type: in vivo, mouse
- applied-conditions: female, CD-1, mouse, brain/plasma, iv, 6.6 mg/kg, 6.6 mg/kg i.v., for 18 hrs; read-out: brain:plasma (B/P) ratio

{"columns": ["compound", "Kp at 18 h"],
 "data": [
  ["CCn1c(=O)/c(=C2\\Sc3ccccc3N2C)s/c1=C\\c1ccccn1 [YM-08]", "~0.25"]
]}

###

- experiment-description: Liver microsome stability
- Type: in vitro ADME
- applied-conditions: human, liver microsomes, figure legend
readout-kind: half-life

{"columns": ["molecule", "readout-kind", "result"],
 "data": [
  ["CCn1c(=O)/c(=C2\\Sc3ccccc3N2C)s/c1=C\\c1ccccn1 [YM-08]", "half-life", "~4 min"]
]}

###

- assay-target: human Hsc70 (HSPA8) (Homo sapiens, UniProt P11142)
- Construct: made in house
- Sequence (P11142 whole entry): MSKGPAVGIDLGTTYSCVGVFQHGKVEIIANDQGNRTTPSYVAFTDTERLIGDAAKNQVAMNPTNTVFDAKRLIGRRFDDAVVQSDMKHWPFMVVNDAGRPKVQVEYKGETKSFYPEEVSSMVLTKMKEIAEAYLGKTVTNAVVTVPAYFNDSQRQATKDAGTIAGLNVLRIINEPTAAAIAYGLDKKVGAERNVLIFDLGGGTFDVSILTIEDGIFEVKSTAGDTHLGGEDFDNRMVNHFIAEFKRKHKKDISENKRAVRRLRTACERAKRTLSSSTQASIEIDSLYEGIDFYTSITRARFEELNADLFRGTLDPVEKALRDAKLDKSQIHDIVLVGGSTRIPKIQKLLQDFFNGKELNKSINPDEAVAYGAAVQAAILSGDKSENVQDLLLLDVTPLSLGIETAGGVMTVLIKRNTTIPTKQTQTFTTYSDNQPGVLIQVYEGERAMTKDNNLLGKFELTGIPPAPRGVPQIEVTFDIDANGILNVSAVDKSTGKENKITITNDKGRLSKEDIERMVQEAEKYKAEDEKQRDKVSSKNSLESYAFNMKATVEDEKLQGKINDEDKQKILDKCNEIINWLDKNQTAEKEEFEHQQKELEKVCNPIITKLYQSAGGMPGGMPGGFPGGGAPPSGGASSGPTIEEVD
- experiment-description: ELISA competitive binding assay (biotinylated MKT-077 displacement)
- applied-conditions: competitive ELISA, biotin labeled MKT-077 1 μM
The reader will find reported IC50 values listed item by item below.

{"columns": ["compound", "IC50"],
 "data": [
  ["CCN1C(=O)CS/C1=C\\c1ccccn1 [YM-07]", "~5.8 µM"],
  ["CCN1C(=O)/C(=C2\\Sc3ccccc3N2C)SC1=S [YM-02]", "> 50 µM"],
  ["CCn1c(=O)/c(=C2\\Sc3ccccc3N2C)s/c1=C\\c1ccccn1 [YM-08]", "0.61 µM"]
]}

###

- experiment-description: Liver microsome stability
- Format: in vitro ADME
- applied-conditions: human, liver microsomes

{"columns": ["smiles", "half-life"],
 "data": [
  ["CCn1c(=O)/c(=C2\\Sc3ccccc3N2C)s/c1=C\\c1ccccn1", "2 to 4 min"]
]}

###

- experiment-description: Pharmacokinetics of YM-08 in plasma and brain, CD1 mice
- Assay type: in vivo, mouse
- applied-conditions: female, CD-1, mouse, brain, iv; 6.6 mg/kg i.v.; read-out: terminal halftime in the brain (t1/2; brain) (converted)

{"columns": ["smiles", "readout-unit", "half-life"],
 "data": [
  ["CCn1c(=O)/c(=C2\\Sc3ccccc3N2C)s/c1=C\\c1ccccn1", "h", 6.8]
]}

###

- assay-target: Hsp72 (HSPA1) (Homo sapiens, UniProt P0DMV8)
- Sequence (P0DMV8 whole entry): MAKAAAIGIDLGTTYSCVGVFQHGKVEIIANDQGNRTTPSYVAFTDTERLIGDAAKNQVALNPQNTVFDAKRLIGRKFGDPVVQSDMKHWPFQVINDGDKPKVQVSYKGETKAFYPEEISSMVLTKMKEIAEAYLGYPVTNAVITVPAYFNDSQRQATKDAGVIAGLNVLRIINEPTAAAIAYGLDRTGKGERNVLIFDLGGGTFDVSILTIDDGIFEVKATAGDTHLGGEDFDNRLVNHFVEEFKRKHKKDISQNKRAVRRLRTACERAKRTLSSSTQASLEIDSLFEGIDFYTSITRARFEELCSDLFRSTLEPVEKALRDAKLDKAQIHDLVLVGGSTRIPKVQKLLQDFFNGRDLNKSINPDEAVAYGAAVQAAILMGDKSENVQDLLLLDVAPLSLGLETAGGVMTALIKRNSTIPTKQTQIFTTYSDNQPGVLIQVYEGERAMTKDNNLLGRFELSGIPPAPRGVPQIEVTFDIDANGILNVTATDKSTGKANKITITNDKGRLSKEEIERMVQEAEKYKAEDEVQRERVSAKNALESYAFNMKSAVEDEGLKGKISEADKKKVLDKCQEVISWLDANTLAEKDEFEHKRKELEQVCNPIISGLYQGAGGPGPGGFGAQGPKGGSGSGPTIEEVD

{"columns": ["smiles", "assay-target", "Kd"],
 "data": [
  ["CCn1c(=O)/c(=C2\\Sc3ccccc3N2C)s/c1=C\\c1ccccn1", "Hsp72 (HSPA1) (Homo sapiens, UniProt P0DMV8)", "~2 µM"]
]}

###

- experiment-description: t1/2 in tau activity screen table
- Assay type: in vitro ADME
- applied-conditions: liver microsomes; matrix not stated
readout-kind: half-life

{"columns": ["smiles", "result"],
 "data": [
  ["CCn1c(=O)/c(=C2\\Sc3ccccc3N2C)s/c1=C\\c1ccccn1", "< 3 min"]
]}

###

- experiment-description: Pharmacokinetics of YM-08 in plasma and brain, CD1 mice
- Format: in vivo, mouse
- applied-conditions: female, CD-1, mouse, plasma, iv; 6.6 mg/kg i.v.; read-out: t1/2; plasma (converted)
readout-kind: half-life (h)

{"columns": ["smiles", "readout-unit", "readout-number"],
 "data": [
  ["CCn1c(=O)/c(=C2\\Sc3ccccc3N2C)s/c1=C\\c1ccccn1", "h", 9.8]
]}

###

- assay-target: human Hsc70 (HSPA8) (Homo sapiens)
- Construct: made in house
- experiment-description: ELISA competitive binding assay (biotinylated MKT-077 displacement)
pIC50: −log10 of the molar value.
readout-kind: pIC50

{"columns": ["smiles", "assay-target", "readout-number"],
 "data": [
  ["CCn1c(=O)/c(=C2\\Sc3ccccc3N2C)s/c1=C\\c1cccc[n+]1CC", "human Hsc70 (HSPA8) (Homo sapiens)", 5.19]
]}
